TEST_TARGET: GST fusion W548L mutant ALS protein (Oryza sativa subsp. japonica, UniProt Q6K2E8, W548L)
Construct: an expression vector having the full-length wild type ALS cDNA incorporated into the Eco RI site of pGEX-2T; made in house; host or cells: E. coli JM109, pGEX 2T(ALS-W548L mutant); crude supernatant
Sequence (Q6K2E8 44-644 W548L): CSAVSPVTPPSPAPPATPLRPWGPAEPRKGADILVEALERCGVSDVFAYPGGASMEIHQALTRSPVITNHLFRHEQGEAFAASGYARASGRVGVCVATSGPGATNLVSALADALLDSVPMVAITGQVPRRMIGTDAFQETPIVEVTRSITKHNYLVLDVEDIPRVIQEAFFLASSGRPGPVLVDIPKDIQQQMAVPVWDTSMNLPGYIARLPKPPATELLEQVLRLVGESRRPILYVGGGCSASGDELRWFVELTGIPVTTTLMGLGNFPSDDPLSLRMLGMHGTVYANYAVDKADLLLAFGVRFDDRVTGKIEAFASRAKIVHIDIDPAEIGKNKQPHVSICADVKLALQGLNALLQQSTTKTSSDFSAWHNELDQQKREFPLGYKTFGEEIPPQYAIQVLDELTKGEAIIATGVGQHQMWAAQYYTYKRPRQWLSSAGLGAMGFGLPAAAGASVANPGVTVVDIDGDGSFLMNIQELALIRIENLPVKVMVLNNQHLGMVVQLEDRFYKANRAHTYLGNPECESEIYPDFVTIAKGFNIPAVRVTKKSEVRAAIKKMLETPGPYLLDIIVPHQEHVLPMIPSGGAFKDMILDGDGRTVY
MEASUREMENT_PROTOCOL: Herbicide sensitivity of ALS protein expressed in E. coli (crude enzyme solution), W548L
Type: biochemical, rice (Oryza sativa var. Kinmaze)
EXPERIMENTAL_PARAMETERS: W548L mutant; 37° C., 30 minutes, 10 mM valine; read-out: I50
MEASURED_ENDPOINT: pIC50
Units for pIC50: none; it is -log10 of a concentration expressed in mol/L.

# get_value(readout='pIC50', item= CON=C(C)c1cccc(Oc2nc(OC)cc(OC)n2)c1C(=O)O [pyriminobac] )
4.44

====

TEST_TARGET: GST fusion W548L mutant ALS protein (Oryza sativa subsp. japonica, UniProt Q6K2E8, W548L)
Construct: an expression vector having the full-length wild type ALS cDNA incorporated into the Eco RI site of pGEX-2T; made in house; host or cells: E. coli JM109, pGEX 2T(ALS-W548L mutant); crude supernatant
MEASUREMENT_PROTOCOL: Herbicide sensitivity of ALS protein expressed in E. coli (crude enzyme solution), W548L
Assay type: biochemical, rice (Oryza sativa var. Kinmaze)
EXPERIMENTAL_PARAMETERS: W548L mutant vs wild type
Method: ALS activity resulting from the mutant ALS protein contained in the eluted fractions apportioned into each test tube for apportioning was measured as follows. A reaction solution to be used in a measurement reaction was prepared by mixing an eluted fraction to be measured with a solution comprising 20 mM sodium pyruvate, 0.5 mM TPP, 0.5 mM MgCl2, 10 μM FAD and 20 mM potassium phosphate buffer (pH 7.5). One ml of this reaction solution was used. […]
What RS ratio was measured for each of the following?
Number only, please.

Value wanted: RS ratio (GST fusion W548L mutant ALS protein (Oryza sativa subsp. japonica, UniProt Q6K2E8, W548L)) of entry COc1cc(OC)nc(Oc2cccc(Oc3nc(OC)cc(OC)n3)c2C(=O)O)n1 [bispyribac-sodium]
520

Now the same for CON=C(C)c1cccc(Oc2nc(OC)cc(OC)n2)c1C(=O)O [pyriminobac]
4500

Now the same for COc1nc(C)nc(NC(=O)NS(=O)(=O)c2ccccc2Cl)n1 [chlorsulfuron]
760

====

TEST_TARGET: GST fusion P171H/S627I mutant ALS protein (Oryza sativa subsp. japonica, UniProt Q6K2E8, P171H/S627I)
Construct: made in house; host or cells: E. coli, pGEX-2T(ALS-P171H, S627I mutant); crude supernatant
Sequence (Q6K2E8 44-644 P171H/S627I): as the sequence (Q6K2E8 44-644 W548L) above, with P128H, L505W, S584I counted along it
MEASUREMENT_PROTOCOL: Herbicide sensitivity of ALS protein expressed in E. coli (crude enzyme solution), P171H/S627I
Format: biochemical, rice (Oryza sativa var. Kinmaze)
EXPERIMENTAL_PARAMETERS: P171H/S627I mutant; product of RS ratios of the 1-point mutants
Please mark fulfilled if the recorded Predicted RS ratio is equal to or greater than 700, and not fulfilled if it falls below.

For this molecule, is measured Predicted RS ratio 700 or higher? CON=C(C)c1cccc(Oc2nc(OC)cc(OC)n2)c1C(=O)O [pyriminobac]
fulfilled

Now the same for COc1nc(C)nc(NC(=O)NS(=O)(=O)c2ccccc2Cl)n1 [chlorsulfuron]
not fulfilled

Now the same for COc1cc(OC)nc(Oc2cccc(Oc3nc(OC)cc(OC)n3)c2C(=O)O)n1 [bispyribac-sodium]
not fulfilled

Now the same for CC(C)C1(C)N=C(c2nc3ccccc3cc2C(=O)O)NC1=O (centres unmarked) [imazaquin]
not fulfilled

====

What RS ratio was measured for each of the following?
TEST_TARGET: GST fusion P171H mutant ALS protein (Oryza sativa subsp. japonica, UniProt Q6K2E8, P171H)
Construct: an expression vector having the full-length wild type ALS cDNA incorporated into the Eco RI site of pGEX-2T; made in house; host or cells: E. coli JM109, pGEX-2T(ALS P171H mutant); crude supernatant
Sequence (Q6K2E8 44-644 P171H): as the sequence (Q6K2E8 44-644 W548L) above, with P128H, L505W counted along it
MEASUREMENT_PROTOCOL: Herbicide sensitivity of ALS protein expressed in E. coli (crude enzyme solution), P171H
Type: biochemical, rice (Oryza sativa var. Kinmaze)
EXPERIMENTAL_PARAMETERS: P171H mutant vs wild type
Number only, please.

Value wanted: RS ratio (GST fusion P171H mutant ALS protein (Oryza sativa subsp. japonica, UniProt Q6K2E8, P171H)) of entry COc1cc(OC)nc(Oc2cccc(Oc3nc(OC)cc(OC)n3)c2C(=O)O)n1 [bispyribac-sodium]
8.7

Now the same for CON=C(C)c1cccc(Oc2nc(OC)cc(OC)n2)c1C(=O)O
5

Now the same for CC(C)C1(C)N=C(c2nc3ccccc3cc2C(=O)O)NC1=O (centres unmarked)
1.5

Now the same for COc1nc(C)nc(NC(=O)NS(=O)(=O)c2ccccc2Cl)n1
85

Now the same for COc1cc(OC)nc(Sc2cccc(Cl)c2C(=O)O)n1 [pyrithiobac-sodium]
3.4

====

What RS ratio was measured for each of the following?
TEST_TARGET: GST fusion S627I mutant ALS protein (Oryza sativa subsp. japonica, UniProt Q6K2E8, S627I)
Construct: an expression vector having the full-length wild type ALS cDNA incorporated into the Eco RI site of pGEX-2T; made in house; host or cells: E. coli JM109, pGEX 2T(ALS-S627I mutant); crude supernatant
Sequence (Q6K2E8 44-644 S627I): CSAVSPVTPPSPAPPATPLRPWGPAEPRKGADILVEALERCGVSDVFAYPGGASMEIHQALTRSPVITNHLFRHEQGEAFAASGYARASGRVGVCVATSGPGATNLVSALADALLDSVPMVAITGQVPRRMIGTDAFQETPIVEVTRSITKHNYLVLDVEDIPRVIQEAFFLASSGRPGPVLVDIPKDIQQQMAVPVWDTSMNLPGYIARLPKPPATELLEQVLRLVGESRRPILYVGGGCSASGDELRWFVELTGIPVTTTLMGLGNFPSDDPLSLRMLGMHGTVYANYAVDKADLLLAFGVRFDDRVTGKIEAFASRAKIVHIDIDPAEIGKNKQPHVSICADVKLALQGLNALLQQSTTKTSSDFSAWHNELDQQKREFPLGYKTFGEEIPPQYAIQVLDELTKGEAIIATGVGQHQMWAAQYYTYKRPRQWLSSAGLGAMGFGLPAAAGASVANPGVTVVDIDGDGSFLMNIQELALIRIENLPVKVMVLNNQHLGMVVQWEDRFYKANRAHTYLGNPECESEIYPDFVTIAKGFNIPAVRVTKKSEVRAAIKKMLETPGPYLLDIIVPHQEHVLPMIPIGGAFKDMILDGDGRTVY
MEASUREMENT_PROTOCOL: Herbicide sensitivity of ALS protein expressed in E. coli (crude enzyme solution), S627I
Type: biochemical, rice (Oryza sativa var. Kinmaze)
EXPERIMENTAL_PARAMETERS: S627I mutant vs wild type
Number only, please.

# get_value(readout='RS ratio', item= COc1nc(C)nc(NC(=O)NS(=O)(=O)c2ccccc2Cl)n1 [chlorsulfuron] )
2.4

Now the same for COc1cc(OC)nc(Sc2cccc(Cl)c2C(=O)O)n1 [pyrithiobac-sodium]
200

Now the same for COc1cc(OC)nc(Oc2cccc(Oc3nc(OC)cc(OC)n3)c2C(=O)O)n1 [bispyribac-sodium]
41

Now the same for CON=C(C)c1cccc(Oc2nc(OC)cc(OC)n2)c1C(=O)O [pyriminobac]
2800

====

TEST_TARGET: GST fusion R172S mutant ALS protein (Oryza sativa subsp. japonica, UniProt Q6K2E8, R172S)
Construct: an expression vector having the full-length wild type ALS cDNA incorporated into the Eco RI site of pGEX-2T; made in house; host or cells: E. coli JM109, pGEX-2T(ALS R172S mutant); crude supernatant
Sequence (Q6K2E8 44-644 R172S): as the sequence (Q6K2E8 44-644 W548L) above, with R129S, L505W counted along it
MEASUREMENT_PROTOCOL: Herbicide sensitivity of ALS protein expressed in E. coli (crude enzyme solution), R172S
Format: biochemical, rice (Oryza sativa var. Kinmaze)
EXPERIMENTAL_PARAMETERS: R172S mutant; 37° C., 30 minutes, 10 mM valine; read-out: I50
MEASURED_ENDPOINT: IC50 (nM)
Response body: numeric value in nM, unit text excluded.

# get_value(readout='IC50', item= CON=C(C)c1cccc(Oc2nc(OC)cc(OC)n2)c1C(=O)O )
9.2

====

What RS ratio was measured for each of the following?
TEST_TARGET: GST fusion P171H/S627I mutant ALS protein (Oryza sativa subsp. japonica, UniProt Q6K2E8, P171H/S627I)
Construct: made in house; host or cells: E. coli, pGEX-2T(ALS-P171H, S627I mutant); crude supernatant
MEASUREMENT_PROTOCOL: Herbicide sensitivity of ALS protein expressed in E. coli (crude enzyme solution), P171H/S627I
Format: biochemical, rice (Oryza sativa var. Kinmaze)
EXPERIMENTAL_PARAMETERS: P171H/S627I mutant vs wild type
Number only, please.

# get_value(readout='RS ratio', item= COc1cc(OC)nc(Sc2cccc(Cl)c2C(=O)O)n1 [pyrithiobac-sodium] )
850

Now the same for CC(C)C1(C)N=C(c2nc3ccccc3cc2C(=O)O)NC1=O (centres unmarked)
32

Now the same for COc1cc(OC)nc(Oc2cccc(Oc3nc(OC)cc(OC)n3)c2C(=O)O)n1 [bispyribac-sodium]
3700

Now the same for COc1nc(C)nc(NC(=O)NS(=O)(=O)c2ccccc2Cl)n1
760
